target: human angiotensin-converting enzyme 1 (hACE1) (human, UniProt P12821 30-1256); test: enzyme inhibition assay; conditions: both partners purified
Sequence (P12821 30-1256): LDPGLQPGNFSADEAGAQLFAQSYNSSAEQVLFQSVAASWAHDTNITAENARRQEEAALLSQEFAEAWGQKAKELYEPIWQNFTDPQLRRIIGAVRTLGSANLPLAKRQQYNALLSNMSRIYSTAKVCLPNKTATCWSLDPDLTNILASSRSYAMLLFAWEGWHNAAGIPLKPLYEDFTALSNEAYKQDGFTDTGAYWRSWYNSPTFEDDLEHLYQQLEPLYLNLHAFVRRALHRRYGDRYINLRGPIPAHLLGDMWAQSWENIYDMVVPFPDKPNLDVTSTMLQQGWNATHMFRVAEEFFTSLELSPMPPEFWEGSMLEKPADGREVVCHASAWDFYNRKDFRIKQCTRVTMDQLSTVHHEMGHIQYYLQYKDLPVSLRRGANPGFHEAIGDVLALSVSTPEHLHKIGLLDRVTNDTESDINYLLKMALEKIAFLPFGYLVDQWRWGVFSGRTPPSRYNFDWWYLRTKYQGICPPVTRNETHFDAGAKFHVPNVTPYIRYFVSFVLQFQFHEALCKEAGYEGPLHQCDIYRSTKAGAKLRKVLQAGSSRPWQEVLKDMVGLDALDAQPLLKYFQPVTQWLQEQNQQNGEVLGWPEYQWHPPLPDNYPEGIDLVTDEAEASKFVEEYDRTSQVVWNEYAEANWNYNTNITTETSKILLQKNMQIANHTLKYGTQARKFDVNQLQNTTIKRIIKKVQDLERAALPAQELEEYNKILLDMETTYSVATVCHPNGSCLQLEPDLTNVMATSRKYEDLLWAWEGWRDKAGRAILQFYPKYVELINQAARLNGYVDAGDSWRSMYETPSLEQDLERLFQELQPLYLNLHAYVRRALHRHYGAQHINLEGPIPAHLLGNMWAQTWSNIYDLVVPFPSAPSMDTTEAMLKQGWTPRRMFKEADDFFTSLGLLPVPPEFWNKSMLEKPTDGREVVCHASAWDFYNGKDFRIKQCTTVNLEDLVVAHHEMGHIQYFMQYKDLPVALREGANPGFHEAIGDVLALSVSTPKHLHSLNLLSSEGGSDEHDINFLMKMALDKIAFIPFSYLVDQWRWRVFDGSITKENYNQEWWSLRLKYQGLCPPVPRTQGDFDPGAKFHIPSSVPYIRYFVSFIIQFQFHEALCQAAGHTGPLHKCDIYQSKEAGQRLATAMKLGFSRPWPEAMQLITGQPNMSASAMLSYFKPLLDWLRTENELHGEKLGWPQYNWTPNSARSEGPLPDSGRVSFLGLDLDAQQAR
Bridges are numbered along the chain shown (N, C = ends). Where no end group is shown, it is not given here.

>  <binder>
GDYSHCSPLRYYPWWKCTYPDPEGGG (disulfide 6-17 (inferred), source: bought: Selleck Chemicals LLC) [DX600, disulfide-constrained cyclic peptide inhibitor of hACE2]

>  <IC50>
> 100 µM

$$$$
